experiment: Volume of distribution at steady state in rat at 0.5 mg/kg, iv; assay type: ADME, organism-based; settings: in vivo, read-out: Vdss
Measured Parameter: Vd (L/kg)

{"columns": ["Compound String", "Recorded Number"],
 "data": [
  ["Nc1cc(C(F)(F)F)c(Br)nc1C(=O)NC[C@@H](O)C(F)(F)F", 3.2]
]}

----------
experiment: AUC in rat at 3 mg/kg, po; conditions: in vivo
Below: a set of entries, each annotated with reported AUC.
Measured Parameter: AUC (ng·h/mL)

{"columns": ["Molecule", "Measured Parameter", "Recorded Number"],
 "data": [
  ["C[C@@H]1CN(c2nc(-n3ccc(OCC4(C(F)(F)F)CC4)n3)ccc2C(=O)NS(=O)(=O)c2ccccc2)C(C)(C)C1", "AUC", 14700],
  ["C[C@@H]1CN(c2nc(-n3ccc(OCCC4(C(F)(F)F)CC4)n3)ccc2C(=O)NS(=O)(=O)c2cccc(F)c2)C(C)(C)C1", "AUC", 2700],
  ["C[C@@H]1CN(c2nc(-n3ccc(OCC4(C(F)(F)F)CCC4)n3)ccc2C(=O)NS(=O)(=O)c2ccccc2)C(C)(C)C1", "AUC", 2200],
  ["C[C@@H]1CN(c2nc(-n3ccc(OCCC4(C(F)(F)F)CC4)n3)ccc2C(=O)NS(=O)(=O)c2ccccc2)C(C)(C)C1 [BAMOCAFTOR]", "AUC", 21000],
  ["C[C@@H]1CN(c2nc(-n3ccc(OCC(C)(C)C)n3)ccc2C(=O)NS(=O)(=O)c2cccnc2N)C(C)(C)C1", "AUC", 1200]
]}
